Recorded values, source PubChem BioAssay (EPA / NIEHS).

- Read-out: Interferon-gamma inducible Protein 10 (IP10), CXCL10 (gene 3627)
- method summary: BSK_BE3C_IP10: BioMAP Diversity Plus: BE3C Assay for Interferon-gamma inducible Protein 10 (IP10) Biomarker Activity (AID 2283034)
- condition notes: primary human bronchial epithelial cells; actives raise or lower the signal
Active and inactive are the calls of the source. How the source made its calls: active means hit-call score of the fitted dose curve at least 0.9, where 1 is the maximum; inactive means score below 0.9.
Outcomes: 1 for active, -1 for inactive

[
  {
    "compound": "C=CC(=O)OCCC(F)(F)C(F)(F)C(F)(F)C(F)(F)C(F)(F)C(F)(F)C(F)(F)C(F)(F)F",
    "class label": -1
  },
  {
    "compound": "N=C(N)c1ccc(OCCCCCOc2ccc(C(=N)N)cc2)cc1",
    "class label": 1
  },
  {
    "compound": "CCCCCCCCCCCCCCCCCC[N+](C)(C)Cc1ccccc1",
    "class label": 1
  },
  {
    "compound": "O=C(NO)c1ccccc1",
    "class label": -1
  },
  {
    "compound": "O=C1c2ccc(O)c(O)c2C(=O)c2c(O)ccc(O)c21",
    "class label": -1
  },
  {
    "compound": "CN(C)CCOC(c1ccccc1)c1ccccc1",
    "class label": -1
  },
  {
    "compound": "CCCCC=O",
    "class label": -1
  },
  {
    "compound": "CN(C)c1ccc(C(=C2C=CC(=[N+](C)C)C=C2)c2ccccc2)cc1",
    "class label": 1
  },
  {
    "compound": "C=CC(C)(CCC=C(C)C)OC(C)=O (configuration not stated)",
    "class label": 1
  },
  {
    "compound": "O=C(O)CCC(F)(F)C(F)(F)C(F)(F)C(F)(F)C(F)(F)F",
    "class label": -1
  },
  {
    "compound": "Cc1[nH]nc2c1N=C(c1ccccc1Cl)c1cc([N+](=O)[O-])ccc1N2",
    "class label": 1
  },
  {
    "compound": "O=P(O)(O)CCC(F)(F)C(F)(F)C(F)(F)C(F)(F)C(F)(F)C(F)(F)C(F)(F)C(F)(F)F",
    "class label": -1
  },
  {
    "compound": "Oc1ccc(Cc2ccccc2O)cc1",
    "class label": -1
  },
  {
    "compound": "CC[N+](CC)(CC)Cc1ccccc1",
    "class label": -1
  },
  {
    "compound": "CCCCCc1ccc(O)cc1",
    "class label": 1
  },
  {
    "compound": "Oc1cc2ccccc2cc1O",
    "class label": -1
  },
  {
    "compound": "CN(Cc1cnc2nc(N)nc(N)c2n1)c1ccc(C(=O)N[C@@H](CCC(=O)O)C(=O)O)cc1",
    "class label": -1
  },
  {
    "compound": "COC1=CC(=O)C[C@@H](C)[C@]12Oc1c(Cl)c(OC)cc(OC)c1C2=O",
    "class label": -1
  },
  {
    "compound": "CCCCC(CC)C(=O)OCCOCCOCCOCCOC(=O)C(CC)CCCC (configuration not stated)",
    "class label": -1
  },
  {
    "compound": "COCN(COC)c1nc(N(COC)COC)nc(N(COC)COC)n1",
    "class label": -1
  },
  {
    "compound": "C[C@]12CC[C@@H]3c4ccc(O)cc4CC[C@H]3[C@@H]1C[C@@H](O)[C@@H]2O",
    "class label": -1
  },
  {
    "compound": "OCCN1CN(CCO)CN(CCO)C1",
    "class label": -1
  },
  {
    "compound": "CCCCCCCCCCCCCCC",
    "class label": -1
  },
  {
    "compound": "OCC(CO)(CBr)CBr",
    "class label": -1
  },
  {
    "compound": "CCOC(=O)CN[C@@H](C(=O)N1CC[C@H]1C(=O)NCc1ccc(/C(N)=N/O)cc1)C1CCCCC1",
    "class label": -1
  },
  {
    "compound": "CC(C)(C)c1ccc(O)c(O)c1",
    "class label": -1
  },
  {
    "compound": "O=C1NS(=O)(=O)c2ccccc21",
    "class label": -1
  }
]
